- Tested on: OCUM-1 (Gastric Carcinoma);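 note: after 72 h of two-drug dosing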
- procedure details: Bliss excess, mean over the matrix (fraction); higher = more synergy
Reported Bliss excess values for a set of compounds
Please give only the number in your answer, with no unit.

compound	Bliss excess
C[C@@H]1COCCN1c1cc(C2([S@](C)(=N)=O)CC2)nc(-c2ccnc3[nH]ccc23)n1 [AZD6738] + Nc1ccn([C@@H]2O[C@H](CO)[C@@H](O)C2(F)F)c(=O)n1 [Gemcitabine] (first compound max 10 µM, 7x7, partner max 0.3 µM)	-0.0316
CN(CCO)CC[C@H](CSc1ccccc1)Nc1ccc(S(=O)(=O)NC(=O)c2ccc(N3CCC([C@@H](O)c4ccccc4-c4ccc(Cl)cc4)CC3)cc2)cc1S(=O)(=O)C(F)(F)F [AZD4320] + Cc1cc2ncnn2cc1Nc1ncc2c(n1)n(C1CCOCC1)c(=O)n2C [AZD7648] (first compound max 1 µM, 7x7, partner max 10 µM)	-0.0462
COc1nnc2ccc(N3CCC(c4ccc(OCCN5CCN(C)C(=O)[C@H]5C)cc4)CC3)nn12 [AZD5153] + Cc1c2c(nn1C)CSCc1cc(n(C)n1)CSc1cc(c3ccccc3c1)OCCCc1c(C(=O)O)n(C)c3c-2c(Cl)ccc13 [AZD5991] (first compound max 1 µM, 7x7, partner max 1 µM)	0.0024
CN(C)CCCOc1ccc(-c2ccc3ncc4c(c3c2)n(C2CCOCC2)c(=O)n4C)cn1 [AZD0156] + C=CCn1c(=O)c2cnc(Nc3ccc(N4CCN(C)CC4)cc3)nc2n1-c1cccc(C(C)(C)O)n1 [AZD1775] (first compound max 1 µM, partner max 1 µM)	0.0183
Cc1c2c(nn1C)CSCc1cc(n(C)n1)CSc1cc(c3ccccc3c1)OCCCc1c(C(=O)O)n(C)c3c-2c(Cl)ccc13 [AZD5991] + CCN(CCO)CCCOc1ccc2c(Nc3cc(CC(=O)Nc4cccc(F)c4)[nH]n3)ncnc2c1 [AZD2811] (first compound max 1 µM, 7x7, partner max 1 µM)	-0.0031
CC1(C)CCC(CN2CCN(c3ccc(C(=O)NS(=O)(=O)c4ccc(NCC5CCOCC5)c([N+](=O)[O-])c4)c(Oc4cnc5[nH]ccc5c4)c3)CC2)=C(c2ccc(Cl)cc2)C1 [Venetoclax] + C[C@@H](Nc1cc(F)cc(F)c1)c1cc(C(=O)N(C)C)cc2c(=O)cc(N3CCOCC3)oc12 [AZD8186] (first compound max 1 µM, 7x7, partner max 3 µM)	-0.0263

Next compound, please.
Qu. Can you look up the measured Bliss excess of CC(=O)Nc1cccc(-n2c(=O)n(C3CC3)c(=O)c3c(Nc4ccc(I)cc4F)n(C)c(=O)c(C)c32)c1 [Trametinib] + Cc1nc(-c2cn3c(n2)-c2ccc(-c4cnn(C(C)(C)C(N)=O)c4)cc2OCC3)n(C(C)C)n1 [Taselisib] (first compound max 1 µM, 7x7, partner max 10 µM) for me?
Ans. 0.06

====

Overview of reported combination Emax across a group of molecules:
- Tested on: SNU-C1 (Colorectal Carcinoma)
- procedure details: combination Emax (second highest fraction inhibited in the dose matrix, 72 h); higher = more inhibition; extreme values may be limits of the assay

Study these solved cases before continuing.
molecule	combination Emax
CCN(CCO)CCCOc1ccc2c(Nc3cc(CC(=O)Nc4cccc(F)c4)[nH]n3)ncnc2c1 [AZD2811] + C[C@@H]1COCCN1C2=NC(=NC(=C2)C3(CC3)[S@](=N)(=O)C)C4=C5C=CNC5=NC=C4 [AZD6738] (first compound max 1 µM, 7x7, partner max 10 µM)	0.435
C[C@@H](Nc1cc(F)cc(F)c1)c1cc(C(=O)N(C)C)cc2c(=O)cc(N3CCOCC3)oc12 [AZD8186] + C1CN(CCC1(C(=O)N[C@@H](CCO)C2=CC=C(C=C2)Cl)N)C3=NC=NC4=C3C=CN4 [AZD5363] (first compound max 10 µM, 7x7, partner max 10 µM)	0.586
CC1(C)CCC(CN2CCN(c3ccc(C(=O)NS(=O)(=O)c4ccc(NCC5CCOCC5)c([N+](=O)[O-])c4)c(Oc4cnc5[nH]ccc5c4)c3)CC2)=C(c2ccc(Cl)cc2)C1 [Venetoclax] + C[C@@H](Nc1cc(F)cc(F)c1)c1cc(C(=O)N(C)C)cc2c(=O)cc(N3CCOCC3)oc12 [AZD8186] (first compound max 1 µM, 7x7, partner max 3 µM)	0.063

Qu. Data request, read-out combination Emax, for Cc1c2c(nn1C)CSCc1cc(n(C)n1)CSc1cc(c3ccccc3c1)OCCCc1c(C(=O)O)n(C)c3c-2c(Cl)ccc13 [AZD5991] + CN(C)CCCOc1ccc(-c2ccc3ncc4c(c3c2)n(C2CCOCC2)c(=O)n4C)cn1 [AZD0156] (first compound max 1 µM, 7x7, partner max 1 µM)
Ans. 0.424

====

The following molecules are shown together with reported combination Emax values.
- System: NB7 (Neuroblastoma)
- procedure details: combination Emax (second highest fraction inhibited in the dose matrix, 72 h); higher = more inhibition; extreme values may be limits of the assay
When you answer, write just the number.

molecule	measured quantity	endpoint value
C=CCn1c(=O)c2cnc(Nc3ccc(N4CCN(C)CC4)cc3)nc2n1-c1cccc(C(C)(C)O)n1 [AZD1775] + O=C(c1cc(Cc2n[nH]c(=O)c3ccccc23)ccc1F)N1CCN(C(=O)C2CC2)CC1 [Olaparib] (first compound max 1 µM, partner max 10 µM)	combination Emax	0.632
C[C@@H](Oc1cc(-c2cnn(C3CCNCC3)c2)cnc1N)c1c(Cl)ccc(F)c1Cl [Crizotinib] + Cn1cnc2c(F)c(Nc3ccc(Br)cc3Cl)c(C(=O)NOCCO)cc21 [Selumetinib] (first compound max 10 µM, 7x7, partner max 10 µM)	combination Emax	0.443
CN(CCO)CC[C@H](CSc1ccccc1)Nc1ccc(S(=O)(=O)NC(=O)c2ccc(N3CCC([C@@H](O)c4ccccc4-c4ccc(Cl)cc4)CC3)cc2)cc1S(=O)(=O)C(F)(F)F [AZD4320] + Cc1cc2ncnn2cc1Nc1ncc2c(n1)n(C1CCOCC1)c(=O)n2C [AZD7648] (first compound max 1 µM, 7x7, partner max 10 µM)	combination Emax	0.0542
CCN(CCO)CCCOc1ccc2c(Nc3cc(CC(=O)Nc4cccc(F)c4)[nH]n3)ncnc2c1 [AZD2811] + O=C(c1cc(Cc2n[nH]c(=O)c3ccccc23)ccc1F)N1CCN(C(=O)C2CC2)CC1 [Olaparib] (first compound max 1 µM, 7x7, partner max 10 µM)	combination Emax	0.473
C[C@@H](c1ccc2nccn2c1)n1nnc2ncc(-c3cnn(C)c3)nc21 [Savolitinib] + Cc1c2c(nn1C)CSCc1cc(n(C)n1)CSc1cc(c3ccccc3c1)OCCCc1c(C(=O)O)n(C)c3c-2c(Cl)ccc13 [AZD5991] (first compound max 1 µM, 7x7, partner max 1 µM)	combination Emax	0.462
N#Cc1cnc(Nc2cc(NC[C@H]3CNCCO3)c(C(F)(F)F)cn2)cn1 [SRA737] + C=CCn1c(=O)c2cnc(Nc3ccc(N4CCN(C)CC4)cc3)nc2n1-c1cccc(C(C)(C)O)n1 [AZD1775] (first compound max 10 µM, partner max 1 µM)	combination Emax	0.849

# input for lookup
Qu. Recorded combination Emax for NC1(C(=O)N[C@@H](CCO)c2ccc(Cl)cc2)CCN(c2ncnc3[nH]ccc23)CC1 [Capivasertib] + CCN(CCO)CCCOc1ccc2c(Nc3cc(CC(=O)Nc4cccc(F)c4)[nH]n3)ncnc2c1 [AZD2811] (first compound max 10 µM, 7x7, partner max 1 µM) , please?
Ans. 0.613

====

- System: LC4-1 (B-Lymphoblastic Leukemia)
- procedure details: combination Emax (second highest fraction inhibited in the dose matrix, 72 h); higher = more inhibition; extreme values may be limits of the assay
combination Emax reference
Returns: the value as a bare number; no unit string appended.

The cases that follow already have their combination Emax on record.
compound	combination Emax
C=CCn1c(=O)c2cnc(Nc3ccc(N4CCN(C)CC4)cc3)nc2n1-c1cccc(C(C)(C)O)n1 [AZD1775] + C[C@@H]1COCCN1C2=NC(=NC(=C2)C3(CC3)[S@](=N)(=O)C)C4=C5C=CNC5=NC=C4 [AZD6738] (first compound max 1 µM, partner max 10 µM)	0.952
C[C@@H]1COCCN1c1cc(C2([S@](C)(=N)=O)CC2)nc(-c2ccnc3[nH]ccc23)n1 [AZD6738] + C1CC(C1)(C(=O)[O-])C(=O)[O-].N.N.[Pt+2] [Carboplatin] (first compound max 10 µM, 7x7, partner max 10 µM)	0.896
COc1nnc2ccc(N3CCC(c4ccc(OCCN5CCN(C)C(=O)[C@H]5C)cc4)CC3)nn12 [AZD5153] + C=CCn1c(=O)c2cnc(Nc3ccc(N4CCN(C)CC4)cc3)nc2n1-c1cccc(C(C)(C)O)n1 [AZD1775] (first compound max 1 µM, partner max 1 µM)	0.941

Turning now to a further compound:
Qu. For COc1cccc(OCCCN)c1-c1cc(Nc2cnc(C#N)cn2)n[nH]1 [Prexasertib] + CN(C)CCCOc1ccc(-c2ccc3ncc4c(c3c2)n(C2CCOCC2)c(=O)n4C)cn1 [AZD0156] (first compound max 1 µM, 7x7, partner max 1 µM) , what is its reported combination Emax?
Ans. 0.978
